- Assay Notes: Secondary assays, CellTiter-Fluor viability;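 also: minimum viability across the dose series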
- Reported Conditions: human, H2, S2 and SC cells
- Method: Compounds were plated at 2× concentrations in 25 μl in 384 well plates with each compound dose plated in triplicate. […] Cells were grown 24 hrs then assayed first by using the CellTiter-Fluor reagent (20 μl) followed by the addition of Bright-Glo ([…]) luciferase assay, using a multimode plate reader (Beckman DT880). […] IC50s were determined by the Hill coefficient method using an online tool (https://www.aatbio.com/tools/ic50-calculator). […]
Assay Readout: viability at 24 h (%)
Number in %, nothing else.

Inquiry: Given the molecule CC[C@@]1(O)C(=O)OCc2c1cc1n(c2=O)Cc2cc3ccccc3nc2-1 , write its reported viability at 24 h.
Reply text: 92.1
